The reported numbers originate from patent US11401295B2.

- Tested on: IRF3 pathway in RAW-Dual cells (RAW264.7)
- method.notes: Raw-Dual reporter gene activity assay (luciferase, QUANTI-Luc)
- Type: cell-based, mouse
- condition.notes: RAW-Dual cells, IRF3 pathway, 30 min treatment, 18-24 hours incubation; read-out: Raw, EC50
measured.endpoint: EC50 (µM)
Enter your answer as a number in µM; do not include the unit.

// lookup EC50 | system=IRF3 pathway in RAW-Dual cells (RAW264.7) | key= Nc1ncnc2c1ncn2[C@@H]1O[C@@H]2COP(=O)(S)O[C@@H]3[C@H](O)[C@@H](COP(O)(=S)O[C@H]2[C@H]1O)O[C@H]3n1cnc2c(N)ncnc21 (stereo partly shown) [ADU-S100, reference compound]
47.1
